Let's look at some molecules and their measured IC50.
- assay.target: human orexin-1 receptor (Homo sapiens (Human), UniProt O43613)
- Sequence (O43613 whole entry): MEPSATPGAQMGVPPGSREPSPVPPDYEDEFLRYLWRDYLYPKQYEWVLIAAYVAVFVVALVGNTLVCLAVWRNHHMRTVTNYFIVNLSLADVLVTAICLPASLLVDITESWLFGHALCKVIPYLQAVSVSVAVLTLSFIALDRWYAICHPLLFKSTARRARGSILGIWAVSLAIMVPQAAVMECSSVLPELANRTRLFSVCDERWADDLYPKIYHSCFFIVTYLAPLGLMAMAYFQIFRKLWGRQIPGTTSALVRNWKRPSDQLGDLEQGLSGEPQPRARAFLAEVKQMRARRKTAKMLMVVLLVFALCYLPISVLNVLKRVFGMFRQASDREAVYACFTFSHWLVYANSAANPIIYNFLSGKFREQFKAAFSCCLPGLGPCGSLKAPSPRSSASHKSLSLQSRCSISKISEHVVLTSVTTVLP
- assay.info: In vitro assay: intracellular calcium measurements (FLIPR), antagonistic activity
- Format: cell-based
- condition.description: CHO cells, 3 nM orexin-A, compound incubation time of 10 min; marked values are geometric means of n = 2-6; read-out: IC50 OX1
Please give a number only; it is taken to be in nM.

Field: example entries. Status: answers known.
                                   molecule  measurement_kind  number
0  COc1ccccc1C1CCCC(=O)N1Cc1ccc2ccccc2c1 (centres unmarked) [Example 236]              IC50    1770
1  COc1cccc(OC)c1C1CCCC(=O)N1Cc1ccc2c(c1)CCCN2 (centres unmarked) [Example 240]              IC50    2040
2  COc1cccc(OC)c1C1CCCC(=O)N1Cc1ccc(Cl)cc1 (centres unmarked) [Example 158]              IC50     702
3  COCCOc1cccc(OC)c1C1CCCC(=O)N1Cc1ccc(OC(F)(F)F)cc1 (centres unmarked) [Example 211]              IC50    2780

What measured IC50 goes with COc1cccc(OC)c1C1CCCC(=O)N1Cc1ccc(S(C)(=O)=O)cc1 (centres unmarked) [Example 248] ?
7250

Recorded IC50 for COc1cccc(OC)c1C1CCCC(=O)N1Cc1ccc(OC(F)F)cn1 (centres unmarked) [Example 187] , please?
235

Bench note: what IC50 did COc1cccc(OC)c1C1CCC(C)C(=O)N1Cc1ccc(OC(F)(F)F)cc1 (centres unmarked) [Example 216] show?
40

Value lookup for IC50; key = COc1cccc(OC)c1C1CCCC(=O)N1Cc1cc2ccccc2o1 (centres unmarked) [Example 180]
1450

Using the record for CCOc1ccc(CN2C(=O)CCCC2c2c(OC)cccc2OC)cc1 (centres unmarked) [Example 205] , report its IC50.
202

Find the recorded IC50 belonging to COc1cccc(OC)c1C1CCCC(=O)N1Cc1ccc(C(F)(F)F)cc1 (centres unmarked) [Example 163] and report it.
1190

Any idea what its IC50 is? The molecule is CCOc1cccc(OC)c1C1CCCC(=O)N1Cc1ccc(OC(F)(F)F)cc1 (centres unmarked) [Example 212]
216

Endpoint output: IC50 of CCC(c1ccc(OC(F)(F)F)cc1)N1C(=O)C(C)CC1c1c(OC)cccc1OC (centres unmarked) [Example 203] . Value?
451
